testedOn: Toxin B (Clostridioides difficile)
Sequence (P18177 whole entry): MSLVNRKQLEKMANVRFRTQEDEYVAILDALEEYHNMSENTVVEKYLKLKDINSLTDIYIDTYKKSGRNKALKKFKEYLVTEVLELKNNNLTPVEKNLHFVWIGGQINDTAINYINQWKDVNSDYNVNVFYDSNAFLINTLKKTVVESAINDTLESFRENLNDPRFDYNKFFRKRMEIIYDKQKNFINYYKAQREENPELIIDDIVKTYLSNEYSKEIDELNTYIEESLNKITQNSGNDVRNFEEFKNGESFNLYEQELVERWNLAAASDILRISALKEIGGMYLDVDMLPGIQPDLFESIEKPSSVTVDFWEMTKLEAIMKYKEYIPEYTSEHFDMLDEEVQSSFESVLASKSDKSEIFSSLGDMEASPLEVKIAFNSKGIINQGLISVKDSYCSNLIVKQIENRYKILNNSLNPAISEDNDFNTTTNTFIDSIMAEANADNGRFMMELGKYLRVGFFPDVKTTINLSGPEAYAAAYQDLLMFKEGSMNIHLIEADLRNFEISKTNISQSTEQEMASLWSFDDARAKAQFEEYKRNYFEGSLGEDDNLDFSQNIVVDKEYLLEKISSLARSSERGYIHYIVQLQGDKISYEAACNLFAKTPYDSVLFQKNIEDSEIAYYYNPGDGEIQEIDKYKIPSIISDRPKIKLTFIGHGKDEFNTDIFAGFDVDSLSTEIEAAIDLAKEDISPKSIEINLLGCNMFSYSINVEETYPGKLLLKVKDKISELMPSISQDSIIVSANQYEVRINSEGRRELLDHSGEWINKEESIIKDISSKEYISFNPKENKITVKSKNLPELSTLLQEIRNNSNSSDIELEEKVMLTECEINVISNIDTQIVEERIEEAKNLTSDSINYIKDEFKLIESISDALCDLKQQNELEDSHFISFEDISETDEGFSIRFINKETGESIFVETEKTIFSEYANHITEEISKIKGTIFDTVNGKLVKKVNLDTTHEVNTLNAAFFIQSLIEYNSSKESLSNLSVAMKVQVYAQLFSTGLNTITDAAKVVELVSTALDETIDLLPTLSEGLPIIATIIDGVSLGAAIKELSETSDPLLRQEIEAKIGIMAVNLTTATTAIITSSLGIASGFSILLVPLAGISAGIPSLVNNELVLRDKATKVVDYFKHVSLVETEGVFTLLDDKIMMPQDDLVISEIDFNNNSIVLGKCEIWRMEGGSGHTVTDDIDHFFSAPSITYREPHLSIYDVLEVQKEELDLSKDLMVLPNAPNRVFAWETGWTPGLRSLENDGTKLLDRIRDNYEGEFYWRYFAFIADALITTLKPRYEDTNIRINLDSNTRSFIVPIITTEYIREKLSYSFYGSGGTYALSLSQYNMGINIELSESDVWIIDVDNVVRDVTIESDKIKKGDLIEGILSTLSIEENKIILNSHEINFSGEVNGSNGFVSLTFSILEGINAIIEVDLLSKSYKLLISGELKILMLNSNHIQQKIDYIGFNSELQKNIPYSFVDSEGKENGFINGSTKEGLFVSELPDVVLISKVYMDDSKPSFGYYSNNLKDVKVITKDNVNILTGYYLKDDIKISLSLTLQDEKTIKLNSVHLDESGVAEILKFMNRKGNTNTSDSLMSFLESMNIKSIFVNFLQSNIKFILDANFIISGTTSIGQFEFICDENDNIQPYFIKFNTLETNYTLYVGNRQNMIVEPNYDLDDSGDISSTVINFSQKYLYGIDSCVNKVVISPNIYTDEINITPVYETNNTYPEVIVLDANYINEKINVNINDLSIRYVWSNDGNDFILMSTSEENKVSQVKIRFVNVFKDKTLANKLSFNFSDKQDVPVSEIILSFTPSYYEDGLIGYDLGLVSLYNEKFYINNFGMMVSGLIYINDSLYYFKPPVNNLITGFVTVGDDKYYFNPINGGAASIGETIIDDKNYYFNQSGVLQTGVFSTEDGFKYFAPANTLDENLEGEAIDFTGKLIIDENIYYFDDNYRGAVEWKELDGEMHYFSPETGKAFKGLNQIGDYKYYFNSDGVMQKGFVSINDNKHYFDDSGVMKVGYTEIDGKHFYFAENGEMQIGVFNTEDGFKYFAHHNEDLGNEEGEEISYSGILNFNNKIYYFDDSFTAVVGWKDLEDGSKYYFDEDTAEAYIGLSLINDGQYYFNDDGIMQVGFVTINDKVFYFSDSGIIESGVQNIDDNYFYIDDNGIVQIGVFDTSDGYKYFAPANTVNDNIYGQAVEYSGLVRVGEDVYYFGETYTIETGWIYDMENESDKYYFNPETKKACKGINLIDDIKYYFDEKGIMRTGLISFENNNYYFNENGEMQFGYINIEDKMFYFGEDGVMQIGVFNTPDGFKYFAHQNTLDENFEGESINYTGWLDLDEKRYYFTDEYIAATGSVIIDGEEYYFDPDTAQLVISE
runDescription: Allosteric activation of Clostridioides difficile Toxin B assessed as induction of autoproteolysis measured after 3 hrs in presence of CaCl2, MgCl2, ZnCl2 by Western blot based extent cleavage assay
As shown below, each of these molecules has a reported EC50 value.
Kindly answer with a numeric value in µM, unit omitted.

Consider the worked cases shown below.
INSERT INTO measurements (smilesentry, testedon, testreadout, u, endpointvalue) VALUES
  ('O=S(=O)(O)O[C@@H]1[C@@H](OP(O)(O)=S)[C@H](OS(=O)(=O)O)[C@H](OS(=O)(=O)O)[C@H](OS(=O)(=O)O)[C@H]1OP(O)(O)=S', 'Toxin B (Clostridioides difficile)', 'EC50', 'µM', 557),
  ('O=S(=O)(O)O[C@H]1[C@H](OP(O)(O)=S)[C@H](OS(=O)(=O)O)[C@H](OP(O)(O)=S)[C@@H](OS(=O)(=O)O)[C@@H]1OP(O)(O)=S', 'Toxin B (Clostridioides difficile)', 'EC50', 'µM', 113),
  ('O=P(O)(O)O[C@H]1[C@H](OP(=O)(O)O)[C@@H](OP(=O)(O)O)[C@H](OP(=O)(O)O)[C@@H](OP(=O)(O)O)[C@H]1OP(=O)(O)O', 'Toxin B (Clostridioides difficile)', 'EC50', 'µM', 536);

May I ask what EC50 has been recorded for "OP(O)(=S)O[C@H]1[C@H](OP(O)(O)=S)[C@@H](OP(O)(O)=S)[C@H](OP(O)(O)=S)[C@@H](OP(O)(O)=S)[C@H]1OP(O)(O)=S" ?
657
